The variants listed here are annotated with their normalized RNA/DNA level with ligand (log10).
B1: library; a variant is named by its letters at N, in order (parent)
chain: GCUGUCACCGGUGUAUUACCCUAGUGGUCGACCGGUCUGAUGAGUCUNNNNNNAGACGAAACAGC

variants of: B1; assay: normalized RNA/DNA level with ligand (relative to sTRSVctl = 100) (log10 (% of sTRSVctl)); ligand: hypoxanthine (xanthine aptamer); higher = less ribozyme self-cleavage, higher mRNA level; conditions: ligand concentration (+) RNA-Seq: 5 mM, HEK293T, reporter: mCherry (pCS4076), ligand present: yes
Answer as a number with no unit attached.

Illustrative cases are given below, each with its answer.
mutationSpec: AGAUUA
testValue: 1.91
//
mutationSpec: CGCUUG
testValue: 1.91
//
mutationSpec: AUGUGU
testValue: 1.86

Please report normalized RNA/DNA level with ligand (log10) for the following variant: `GCGAAG`
1.46

Please report normalized RNA/DNA level with ligand (log10) for the following variant: `GCUAAA`
1.95

Please report normalized RNA/DNA level with ligand (log10) for the following variant: `AACCGA`
1.95

Please report normalized RNA/DNA level with ligand (log10) for the following variant: `CCGUGC`
1.9

Please report normalized RNA/DNA level with ligand (log10) for the following variant: `AACUGC`
1.91

Please report normalized RNA/DNA level with ligand (log10) for the following variant: `CCAUCU`
2.04

Please report normalized RNA/DNA level with ligand (log10) for the following variant: `AAAAGG`
1.78

Please report normalized RNA/DNA level with ligand (log10) for the following variant: `UCGAUA`
1.91

Please report normalized RNA/DNA level with ligand (log10) for the following variant: `ACCAGC`
1.99

Please report normalized RNA/DNA level with ligand (log10) for the following variant: `UGGGGG`
1.88

Please report normalized RNA/DNA level with ligand (log10) for the following variant: `ACAGAG`
1.79

Please report normalized RNA/DNA level with ligand (log10) for the following variant: `GUACAA`
1.91

Please report normalized RNA/DNA level with ligand (log10) for the following variant: `UAGUAA`
1.94

Please report normalized RNA/DNA level with ligand (log10) for the following variant: `UGUCAA`
1.9

Numbers sourced from the supplement of paper PMC6757056.
